pEC50 overview
# Test system: recombinant NL4-3 virus (Renilla luciferase in nef, Gag P373S; NLRluc)
# test.description: HIV Cell Culture Assay (luciferase reporter virus in MT-2 cells)
# Type: cell-based
# condition.set: Renilla, NL43, MT-2 cells infected for 4-5 days with NLRluc recombinants; luciferase activity; reported as group A/B
pEC50: −log10 of the molar value.

compound	pEC50
C=C(C)[C@@H]1CC[C@]2(NC(=O)CN3C[C@@H]4C[C@H]3CN4Cc3ccccc3)CC[C@]3(C)[C@H](CC[C@@H]4[C@@]5(C)CC=C(c6ccc(C(=O)O)cc6)C(C)(C)[C@@H]5CC[C@]43C)[C@@H]12 [Example 3]	> 7.00

Next compound, please.
Bench note: what pEC50 did CC(C)[C@@H]1CC[C@]2(NCCN3C[C@@H]4C[C@H]3CN4S(C)(=O)=O)CC[C@]3(C)[C@H](CC[C@@H]4[C@@]5(C)CC=C(c6ccc(C(=O)O)cc6)C(C)(C)[C@@H]5CC[C@]43C)[C@@H]12 [Example 12] show?
> 7.00
